Tested on: A549 human lung cancer cells
assay.details: MTT cytotoxicity assay on A549 cells
Type: cell-based
measurement.parameters: 24 h
No end group written: not given here.
test.readout: IC50 (µM)
Output spec: scalar in µM, unitless text.

IC50 recorded for this substance, FIHHIFRGIVHAGRSIGRFLTG-NH2 [P3, piscidin 3] , is 21.6

Field IC50 (entry FIHHIFRGIVHAGRSIGRFLTG-NH2 [P3-Cu^2+] ) reads 2.99

----------
Tested on: A549 human lung cancer cells
assay.details: MTT cytotoxicity assay on A549 cells
Type: cell-based
measurement.parameters: MTT, 24 h treatment, triplicates; 95% CI in parentheses; holo-forms 1:1 CuCl2; read-out: IC50, A549
No end group written: not given here.
test.readout: IC50 (nM)
Give your result in nM as a bare value.

Fill in: A549 human lung cancer cells IC50 for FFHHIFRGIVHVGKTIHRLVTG-NH2 [P1-Cu^2+] = 2150

----------
Overview of reported IC50 across a group of substances:
System: HT1080 (fibrosarcoma) cancer cells
assay.details: MTS cytotoxicity assay on HT1080 cells
Assay type: cell-based
measurement.parameters: 24 h
No end group written: not given here.
I only need the number, in µM, no unit after it.

[
  {
    "substance": "FIHHIFRGIVHAGRSIGRFLTG-NH2 [P3, piscidin 3]",
    "value.observed": 26
  }
]

Moving on to another substance below.
Measured IC50, FIHHIFRGIVHAGRSIGRFLTG-NH2 [P3-Cu^2+] : 5.52

----------
Test system: HeLa (cervical) cancer cells
assay.details: MTS cytotoxicity assay on HeLa cells
Type: cell-based
measurement.parameters: 24 h treatment, triplicates, 95% CI in parentheses, for P3 first data point at 0.16 µmol/L not used, holo-forms 1:1 CuCl2
No end group written: not given here.
test.readout: IC50 (nM)
Please give a number only; it is taken to be in nM.

Entry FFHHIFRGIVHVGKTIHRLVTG-NH2 [P1-Cu^2+] — recorded IC50 = 2170

Ref: paper PMC8208971
